Please go through the items and note down their viability at 40 µM.
- Tested on: MCF-7
- assay.summary: CCK-8 cell viability assay
- Assay type: cell-based
- settings: Homo sapiens, MCF7, MCF-7, 40 μM, 48 h, read-out: Cell viability (100%), 40 μM, 48 h, MCF-7
Express the result in % but write the number alone.

Prompt: Any idea what viability at 40 µM was measured for O=C1COc2ccc(NC(=O)c3cccc(-c4cn(Cc5c(Cl)cccc5Cl)nn4)c3)cc2N1 [Compound 13n] ?
Response: 122

Prompt: Returns the measured viability at 40 µM for the input compound. Input: O=C1COc2ccc(NC(=O)c3cccc(-c4cn(Cc5ccccc5F)nn4)c3)cc2N1 [Compound 13j]
Response: 107

Prompt: Which measured viability at 40 µM value corresponds to O=C1COc2ccc(NC(=O)c3cccc(-c4cn(Cc5ccc(F)cc5)nn4)c3)cc2N1 [Compound 13i] ?
Response: 125

Prompt: viability at 40 µM for O=C1COc2ccc(NC(=O)c3cccc(-c4cn(-c5cccc(Cl)c5)nn4)c3)cc2N1 [Compound 14d] ?
Response: 120

Prompt: Which viability at 40 µM reading was recorded for the compound O=C1COc2ccc(NC(=O)c3cccc(-c4cn(Cc5ccc(F)cc5Cl)nn4)c3)cc2N1 [Compound 13t] ?
Response: 97.9

Prompt: So what does the record say about viability at 40 µM for Cc1cc(C)cc(Cn2cc(-c3cccc(C(=O)Nc4ccc5c(c4)NC(=O)CO5)c3)nn2)c1 [Compound 13b] ?
Response: 112
